Sourced from patent US20260083865A1

test system: PC3-PIP tumor model; parameters: species or system mice; conditions: mouse, in vivo
Numbered stars: 1 amine (or outer) side, 2 acyl side, 3 side chain; on linkers, the order of the positions; unused ones are H or OH. Bridge positions count the residues as written; N and C are the ends. Square brackets hold non-standard residues; d marks the D form. Peptide text beside a SMILES is read from it. * marks the point of attachment. DOTA = O=C(O)CN1CCN(CC(=O)O)CCN(CC(=O)*)CCN(CC(=O)O)CC1; Phe(4-Cl) = N[C@@H](Cc1ccc(Cl)cc1)C(=O)O; X1 = O=C(CC1CCN([*:1])CC1)[*:2]; Tle = CC(C)(C)[C@H](N)C(=O)O; Aib = CC(C)(N)C(=O)O; CO = O=C([*:1])[*:2]; βAla = NCCC(=O)O; NHBu = CCCCN*
measurement.type: Tumor AUC (% ID/g*h)
Value expressed in % ID/g*h; do not type the unit.

C[C@@H](O)[C@H](NC(=O)CC1CCN(C(=O)CN2CCN(CC(=O)O)CCN(CC(=O)O)CCN(CC(=O)O)CC2)CC1)C(=O)NC(C)(C)C(=O)N[C@@H](Cc1ccccc1)C(=O)N[C@H]1CSSC[C@@H](C(=O)N[C@H](C(=O)NCCC(N)=O)C(C)(C)C)NC(=O)[C@H](CC(N)=O)NC(=O)C(C)(C)NC(=O)[C@H](CCCNC(=N)N)NC(=O)[C@H](CCCCN)NC1=O [PSM-0449] ({DOTA}-[X1]T[Aib]FCKR[Aib]NC[Tle][βAla]-NH2; disulfide 5-10) :: 220

Input CCCCNC(=O)N[C@H](C(=O)NC(C)(C)C(=O)N[C@@H](Cc1ccc(Cl)cc1)C(=O)N[C@H]1CSSC[C@@H](C(=O)N[C@H](C(=O)N[C@H](C(=O)N2CCC(CC(=O)N[C@H](CCCCNC(=O)CN3CCN(CC(=O)O)CCN(CC(=O)O)CCN(CC(=O)O)CC3)C(N)=O)CC2)[C@@H](C)O)C(C)(C)C)NC(=O)[C@H](CC(N)=O)NC(=O)C(C)(C)NC(=O)[C@H](CCCNC(=N)N)NC(=O)[C@H](CCCCN)NC1=O)[C@@H](C)O [PSM-0371] ({NHBu-CO}-T[Aib][Phe(4-Cl)]CKR[Aib]NC[Tle]T[X1][dK](DOTA)-NH2; disulfide 4-9) . Output Tumor AUC: 120
